- study.system: Cathepsin D (Cat D) (Homo sapiens)
- Construct: made in house; host or cells: CHO cells
- Sequence (P07339 65-412, species assumed): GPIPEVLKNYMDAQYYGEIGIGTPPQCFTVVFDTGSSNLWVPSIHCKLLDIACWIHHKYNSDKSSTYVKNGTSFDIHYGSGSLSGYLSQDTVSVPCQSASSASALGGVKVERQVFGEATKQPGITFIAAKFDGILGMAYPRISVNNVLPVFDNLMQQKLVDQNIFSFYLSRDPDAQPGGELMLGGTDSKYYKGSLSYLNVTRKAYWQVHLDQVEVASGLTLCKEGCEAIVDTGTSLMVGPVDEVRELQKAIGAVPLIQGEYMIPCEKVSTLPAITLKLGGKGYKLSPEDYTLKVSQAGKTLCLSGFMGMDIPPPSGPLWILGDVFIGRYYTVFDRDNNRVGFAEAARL
- measurement.notes: In vitro enzymatic Cathepsin D (Cat D) FRET assay
- Type: biochemical
- details: average IC50; first procedure; read-out: CatD IC50
measurement.label: IC50 (µM)
Give just the number in µM; leave the unit off.

Some compounds with known IC50 results, for comparison:
# compound, IC50, µM
measured = [
    ("C#C[C@H](C)Oc1cnc(C(=O)Nc2ccc(F)c([C@@]3(C)N=C(N)[C@@]4(CF)CC[C@@H]3S4(=O)=O)c2)cn1", 596),
    ("C#CCOc1ccc(C(=O)Nc2ccc(F)c([C@@]3(C)N=C(N)[C@@]4(CF)CC[C@@H]3S4(=O)=O)c2)nc1", 811),
    ("COc1ccc(C(=O)Nc2ccc(F)c([C@@]3(C)N=C(N)[C@@]4(C)CC[C@@H]3S4(=O)=O)c2)c(F)c1", 1620),
]

Q: Tell me its IC50 given COC[C@]12CC[C@H]([C@@](C)(c3cc(Nc4ncnc5cc(Cl)cnc45)ccc3F)N=C1N)S2(=O)=O as the entry.
A: 1180

Q: Supply reported IC50 belonging to this compound: Cc1cc(C(F)(F)F)cnc1C(=O)Nc1ccc(F)c([C@@]2(CF)N=C(N)[C@@]3(C)CC[C@@H]2S3(=O)=O)c1 (single isomer, unassigned)
A: 3460

---

- System: Aβ40 in conditioned medium of cells stably expressing Amyloid Precursor Protein (APP)
- measurement.notes: In vitro BACE cell-based assay (HEK cell assay, Aβ40 sandwich ELISA)
- details: Homo sapiens, HEK293; average IC50; read-out: BACE1 cell assay IC50
measurement.label: IC50
# output: numeric value plus its unit

The examples below pair each entry with its known result.
# smiles.record, study.system, IC50
measured = [
    ("C#CCOc1cnc2c(Nc3ccc(F)c([C@@]4(C)N=C(N)[C@@]5(CF)CC[C@@H]4S5(=O)=O)c3)nccc2n1", "Aβ40 in conditioned medium of cells stably expressing Amyloid Precursor Protein (APP)", "5 nM"),
    ("Cn1ccc(COc2cnc3c(Nc4ccc(F)c([C@@]5(C)N=C(N)[C@@]6(C)CC[C@@H]5S6(=O)=O)c4)nccc3n2)n1", "Aβ40 in conditioned medium of cells stably expressing Amyloid Precursor Protein (APP)", "1 nM"),
    ("C[C@]12CC[C@H]([C@@](C)(c3cc(NC(=O)c4c(F)cc(Br)cc4F)ccc3F)N=C1N)S2(=O)=O", "Aβ40 in conditioned medium of cells stably expressing Amyloid Precursor Protein (APP)", "73 nM"),
    ("COc1cnc2c(Nc3ccc(F)c([C@@]4(C)N=C(N)[C@@]5(CF)CC[C@@H]4S5(=O)=O)c3)nccc2n1", "Aβ40 in conditioned medium of cells stably expressing Amyloid Precursor Protein (APP)", "15 nM"),
    ("C[C@]1(c2cc(Nc3nccc4cc(C#N)cnc34)ccc2F)N=C(N)[C@@]2(C)CC[C@@H]1S2(=O)=O", "Aβ40 in conditioned medium of cells stably expressing Amyloid Precursor Protein (APP)", "3 nM"),
    ("Cc1cc(OC(F)F)cnc1C(=O)Nc1ccc(F)c([C@@]2(C)N=C(N)[C@@]3(CF)CC[C@@H]2S3(=O)=O)c1", "Aβ40 in conditioned medium of cells stably expressing Amyloid Precursor Protein (APP)", "2 nM"),
]

Q: Tell me IC50 reported for C[C@]1(c2cc(Nc3ncc(F)c4cc(C#N)cnc34)ccc2F)N=C(N)[C@@]2(CF)CC[C@@H]1S2(=O)=O
A: 38 nM

---

- Tested on: Aβ40 in conditioned medium of cells stably expressing Amyloid Precursor Protein (APP)
- measurement.notes: In vitro BACE cell-based assay (HEK cell assay, Aβ40 sandwich ELISA)
- details: Homo sapiens, HEK293; average IC50; read-out: BACE1 cell assay IC50
measurement.label: IC50 (nM)
Report only the number, with the unit nM understood.

# count of solved cases: 4
# compound, quantity.unit, observed.result
measured = [
    ("C[C@]1(c2cc(NC(=O)c3ccc(C#N)cc3F)ccc2F)N=C(N)[C@@]2(C)CC[C@@H]1S2(=O)=O [Example 127]", "nM", 25),
    ("CC#C[C@@H](C)Oc1cnc(C(=O)Nc2ccc(F)c([C@@]3(C)N=C(N)[C@@]4(C)CC[C@@H]3S4(=O)=O)c2)cn1 [Example 70]", "nM", 7),
    ("Cc1cc(C(F)(F)F)cnc1C(=O)Nc1ccc(F)c([C@@]2(C)N=C(N)[C@]3(CF)CC[C@H]2S3(=O)=O)c1 [Example 93]", "nM", 35),
    ("Cc1cc(C(F)(F)F)cnc1C(=O)Nc1ccc(F)c([C@@]2(C)N=C(N)[C@@]3(C)CC[C@]2(C)S3(=O)=O)c1 [Example 48]", "nM", 4),
]

Q: Complete the entry with IC50 for COCc1ccc(C(=O)Nc2ccc(F)c([C@@]3(C)N=C(N)[C@]4(C)CC[C@H]3S4(=O)=O)c2)nc1 [Example 91]
A: 46

Q: Look up and state reported IC50 for C[C@]1(c2cc(Nc3ncnc4cc(Cl)cnc34)ccc2F)N=C(N)[C@@]2(C)CC[C@@H]1S2(=O)=O [Example 130]
A: 4

Q: Note down IC50 recorded for C[C@]1(c2cc(Nc3ncnc4cc(C(F)(F)F)cnc34)ccc2F)N=C(N)[C@@]2(C)CC[C@@H]1S2(=O)=O [Example 106]
A: 6

---

- Test system: Aβ40 in conditioned medium of cells stably expressing Amyloid Precursor Protein (APP)
- measurement.notes: In vitro BACE cell-based assay (HEK cell assay, Aβ40 sandwich ELISA)
- details: Homo sapiens, HEK293; average IC50; read-out: BACE1 cell assay IC50
Below, each of the compounds is paired with its reported pIC50 value.
Please treat pIC50 as minus the base-10 logarithm of the molar concentration.

Check out these entries, answers already filled in.
# smiles.record, pIC50
rows = [
    ("COCc1ccc(C(=O)Nc2ccc(F)c([C@@]3(C)N=C(N)[C@@]4(C)CC[C@@H]3S4(=O)=O)c2)nc1", 7.70),
    ("COc1cnc(C(=O)Nc2ccc(F)c([C@@]3(C)N=C(N)[C@@]4(CF)CC[C@@H]3S4(=O)=O)c2)c(C)c1", 7.52),
    ("Cc1cc(C#N)cnc1C(=O)Nc1ccc(F)c([C@@]2(C)N=C(N)[C@@]3(CF)CC[C@@H]2S3(=O)=O)c1", 8.70),
    ("C[C@]12CC[C@H]([C@@](C)(c3cc(NC(=O)c4ccc(C(F)(F)F)cc4F)ccc3F)N=C1N)S2(=O)=O", 6.59),
    ("COc1cnc2c(Nc3ccc(F)c([C@@]4(C)N=C(N)[C@@]5(C)CC[C@@H]4S5(=O)=O)c3)ncnc2c1", 8.52),
]

Q: Answer with the recorded pIC50 for the compound listed here: COC[C@]12CC[C@H]([C@@](C)(c3cc(NC(=O)c4ncc(Cl)cc4C)ccc3F)N=C1N)S2(=O)=O
A: 6.32

Q: Query pIC50 for COc1cnc2c(Nc3ccc(F)c([C@@]4(C)N=C(N)[C@@]5(CF)CC[C@@H]4S5(=O)=O)c3)ncc(F)c2c1
A: 7.55

---

In this section we review reported pIC50 values for a set of compounds.
- System: Aβ40 in conditioned medium of cells stably expressing Amyloid Precursor Protein (APP)
- measurement.notes: In vitro BACE cell-based assay (HEK cell assay, Aβ40 sandwich ELISA)
- details: Homo sapiens, HEK293; average IC50; read-out: BACE1 cell assay IC50
# pIC50 is unitless: minus log10 of the molar concentration; print number only

# smiles.record, pIC50
measured = [
    ("C[C@]1(c2cc(NC(=O)c3ccc(C#CC4CC4)cn3)ccc2F)N=C(N)[C@@]2(C)CC[C@@H]1S2(=O)=O", 8.30),
    ("C[C@]12CC[C@H]([C@@](C)(c3cc(Nc4ncnc5cc(Cl)cnc45)ccc3F)N=C1N)S2(=O)=O", 7.74),
]

Q: Report value: pIC50, system: Aβ40 in conditioned medium of cells stably expressing Amyloid Precursor Protein (APP), compound: C[C@]12CC[C@](C)(C(N)=N[C@]1(C)c1cc(Nc3ncc(F)c4cc(Cl)cnc34)ccc1F)S2(=O)=O
A: 6.55

Q: Tell me its pIC50 on Aβ40 in conditioned medium of cells stably expressing Amyloid Precursor Protein (APP): C#C[C@H](C)Oc1cnc(C(=O)Nc2ccc(F)c([C@@]3(C)N=C(N)[C@@]4(CF)CC[C@@H]3S4(=O)=O)c2)cn1
A: 8.52

---

- study.system: BACE1 (Homo sapiens)
- Sequence (P56817 46-501, species assumed): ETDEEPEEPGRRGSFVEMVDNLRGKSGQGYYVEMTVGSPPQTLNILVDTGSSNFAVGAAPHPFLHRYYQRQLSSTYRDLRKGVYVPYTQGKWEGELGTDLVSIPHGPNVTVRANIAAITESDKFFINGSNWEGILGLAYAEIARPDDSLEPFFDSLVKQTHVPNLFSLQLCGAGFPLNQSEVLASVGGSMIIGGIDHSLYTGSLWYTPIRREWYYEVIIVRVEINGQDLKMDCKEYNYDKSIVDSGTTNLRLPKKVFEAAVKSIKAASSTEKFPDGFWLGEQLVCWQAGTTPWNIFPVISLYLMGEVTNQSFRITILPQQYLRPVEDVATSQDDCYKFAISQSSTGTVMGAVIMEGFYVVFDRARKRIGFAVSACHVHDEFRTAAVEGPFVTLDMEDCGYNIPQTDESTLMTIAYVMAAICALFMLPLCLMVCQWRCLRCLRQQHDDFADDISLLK
- measurement.notes: In vitro enzymatic BACE FRET assay
- Assay type: biochemical
- details: read-out: BACE1 FRET assay IC50
pIC50: −log10 of the molar value.
Assign Y to entries whose pIC50 meets or exceeds 8; assign N to the rest.

Worked examples follow.
# compound, class.assignment
rows = [
    ("COc1cnc(C(=O)Nc2ccc(F)c([C@@]3(C)N=C(N)[C@]4(C)CCC[C@@]3(C)S4(=O)=O)c2)cn1 [Example 16]", "N"),
    ("Cc1c(C(=O)Nc2ccc(F)c([C@@]3(C)N=C(N)[C@@]4(C)CC[C@@H]3S4(=O)=O)c2)nc2ccc(Cl)cn12 [Example 25]", "N"),
    ("COc1cnc(C(=O)Nc2ccc(F)c([C@@]3(C)N=C(N)[C@@]4(C)CCC[C@]3(C)S4(=O)=O)c2)cn1 [Example 15]", "N"),
]

# ---- query compound ----
Q: Does pIC50 meet or surpass 8 for Cc1cc(OC(F)F)cnc1C(=O)Nc1ccc(F)c([C@@]2(C)N=C(N)[C@@]3(C)CCC[C@@H]2S3(=O)=O)c1 [Example 5] ?
A: Y
